# Test system: methicillin-resistant S. aureus (MRSA) MB5393
# ASSAY NOTES: Antibacterial assay against MRSA
# Assay type: cell-based, Staphylococcus aureus
# CONDITION PARAMETERS: Staphylococcus aureus; MRSA MB5393; MIC = lowest concentration inhibiting ≥ 95% of growth after overnight incubation; top concentration 96 μg/mL (64 μg/mL for 3 and 8); read-out: MIC MRSA
MEASUREMENT TYPE: MIC

See these solved cases before continuing.
molecule="CC1(C)O[C@@]2(C[C@H]3C(C)(C)[C@@H](Cl)CC[C@]3(C)O)C(=O)c3cc(O)cc(O)c3C(=O)C2=C[C@H]1Cl [Compound 2, Napyradiomycin B7a]" measurement_type=MIC value_observed="48 µg/mL"
molecule="C=C(C)C(O)CCC(C)=CCC12OC(C)(C)C(O)C=C1C(=O)c1c(O)cc(O)cc1C2=O (centres unmarked) [Compound 1, Napyradiomycin A3]" measurement_type=MIC value_observed="> 96 µg/mL"
molecule="CC1(C)O[C@@]2(C[C@H]3C(C)(C)[C@@H](Cl)CC[C@]3(C)O)C(=O)c3cc(O)cc(O)c3C(=O)[C@@]2(O)C[C@H]1Cl [Compound 4, Napyradiomycin SC]" measurement_type=MIC value_observed="> 96 µg/mL"

Task item: Name the reported MIC value associated with the molecule CC1(C)O[C@@]2(C[C@H]3C(C)(C)[C@@H](Cl)CC[C@]3(C)O)C(=O)c3cc(O)cc(O)c3C(=O)C2=C[C@@H]1Cl [Compound 3, Napyradiomycin B7b]
Reply: > 64 µg/mL

Task item: Next entry: CC1=CCC23OC(C)(C)C(Cl)CC2(Cl)C(=O)c2c(cc(O)cc2C3=O)OCC(C)=CCC1 (centres unmarked) [Compound 5, Napyradiomycin D1]
Reply: 12 to 24 µg/mL
